Entry source: PubChem BioAssay (Tox21)

Assay: A CellTox Green Cytotoxicity Assay to monitor cytotoxicity in HepG2 cells - 40 hour (AID 1224879); further: nearly all actives have a fitted effect of over 40% in size
Conditions: CellTox Green fluorescence; series mostly up to 76.8 µM
Inconclusive results are not listed. Calls of active or inactive are those of the source. The call rests on the fitted dose curve; in most records, active means well fitted activation curve with a large enough effect in the repeat runs; inconclusive means weak or mixed curves; inactive means flat fitted curve, though single readings scatter.
Outcomes: 1.0 = active, 0.0 = inactive

[
  {
    "Compound": "CO/C=C(/C(=O)OC)c1ccccc1Oc1cc(Oc2ccccc2C#N)ncn1",
    "Class Label": 0.0
  },
  {
    "Compound": "COc1ccc(C(c2ccc(OC)cc2)C(Cl)(Cl)Cl)cc1",
    "Class Label": 0.0
  },
  {
    "Compound": "c1ccc2c(c1)Sc1ccccc1N2CC1CN2CCC1CC2 (centres undefined)",
    "Class Label": 1.0
  },
  {
    "Compound": "COc1cc(OC)c(OC)cc1C=O",
    "Class Label": 0.0
  },
  {
    "Compound": "CC(c1ccccc1)(c1ccc(O)cc1)c1ccc(O)cc1",
    "Class Label": 1.0
  },
  {
    "Compound": "O=S(=O)(C(Cl)(Cl)Cl)C(Cl)(Cl)Cl",
    "Class Label": 1.0
  },
  {
    "Compound": "OCC(c1ccc(Cl)cc1)c1ccc(Cl)cc1",
    "Class Label": 1.0
  },
  {
    "Compound": "O=C(Nc1ccccc1-c1ccc(Cl)cc1)c1cccnc1Cl",
    "Class Label": 1.0
  },
  {
    "Compound": "C[C@]12CC[C@@H](O)C[C@@H]1CC[C@@H]1[C@@H]2CC[C@]2(C)C(=O)CC[C@@H]12",
    "Class Label": 0.0
  }
]
